targetEntity: Intercellular adhesion molecule-1 (ICAM-1) on JY cells (UniProt P05362 28-532, limits assumed)
Sequence (P05362 28-532 limits assumed): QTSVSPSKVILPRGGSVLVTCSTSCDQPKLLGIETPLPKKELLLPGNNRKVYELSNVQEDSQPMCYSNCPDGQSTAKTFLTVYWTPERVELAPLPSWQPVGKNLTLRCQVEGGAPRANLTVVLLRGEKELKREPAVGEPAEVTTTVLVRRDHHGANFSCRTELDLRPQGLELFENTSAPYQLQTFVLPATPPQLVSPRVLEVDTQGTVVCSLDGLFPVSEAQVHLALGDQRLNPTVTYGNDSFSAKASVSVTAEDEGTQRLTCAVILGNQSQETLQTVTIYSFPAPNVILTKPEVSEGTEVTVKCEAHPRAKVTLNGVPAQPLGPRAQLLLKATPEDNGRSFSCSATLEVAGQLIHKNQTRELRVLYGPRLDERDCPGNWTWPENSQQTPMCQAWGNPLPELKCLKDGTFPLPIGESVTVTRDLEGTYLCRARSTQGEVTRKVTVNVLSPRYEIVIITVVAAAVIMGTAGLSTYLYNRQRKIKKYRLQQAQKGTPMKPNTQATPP
protocolNotes: cell-based or functional assay
Bridge positions count the residues as written; N and C are the ends. Ends that are not written are not given here.
measurementKind: IC50, inhibition of JY cell aggregation at 2 hours (µM)

binder="CLLRMRSIC (disulfide 1-9) [IP01 (inhibitory peptide-01)]" measvalue=530

A. CLLRMRAIC (disulfide 1-9) [IP01-A7]
B. CLLRMRSAC (disulfide 1-9) [IP02]
IN: Two entries are listed, A and B . Which one carries the higher IC50, inhibition of JY cell aggregation at 2 hours? Mark your selection by writing its label.
OUT: A
(A: 740 µM, B: 210 µM)

The reported measurements were obtained from patent US20050048579A1.
